# IC50 annotations
SYSTEM TESTED: EHMT2 (Euchromatic histone-lysine N-methyltransferase 2) (Homo sapiens (Human), UniProt Q96KQ7)
Sequence (Q96KQ7 whole entry): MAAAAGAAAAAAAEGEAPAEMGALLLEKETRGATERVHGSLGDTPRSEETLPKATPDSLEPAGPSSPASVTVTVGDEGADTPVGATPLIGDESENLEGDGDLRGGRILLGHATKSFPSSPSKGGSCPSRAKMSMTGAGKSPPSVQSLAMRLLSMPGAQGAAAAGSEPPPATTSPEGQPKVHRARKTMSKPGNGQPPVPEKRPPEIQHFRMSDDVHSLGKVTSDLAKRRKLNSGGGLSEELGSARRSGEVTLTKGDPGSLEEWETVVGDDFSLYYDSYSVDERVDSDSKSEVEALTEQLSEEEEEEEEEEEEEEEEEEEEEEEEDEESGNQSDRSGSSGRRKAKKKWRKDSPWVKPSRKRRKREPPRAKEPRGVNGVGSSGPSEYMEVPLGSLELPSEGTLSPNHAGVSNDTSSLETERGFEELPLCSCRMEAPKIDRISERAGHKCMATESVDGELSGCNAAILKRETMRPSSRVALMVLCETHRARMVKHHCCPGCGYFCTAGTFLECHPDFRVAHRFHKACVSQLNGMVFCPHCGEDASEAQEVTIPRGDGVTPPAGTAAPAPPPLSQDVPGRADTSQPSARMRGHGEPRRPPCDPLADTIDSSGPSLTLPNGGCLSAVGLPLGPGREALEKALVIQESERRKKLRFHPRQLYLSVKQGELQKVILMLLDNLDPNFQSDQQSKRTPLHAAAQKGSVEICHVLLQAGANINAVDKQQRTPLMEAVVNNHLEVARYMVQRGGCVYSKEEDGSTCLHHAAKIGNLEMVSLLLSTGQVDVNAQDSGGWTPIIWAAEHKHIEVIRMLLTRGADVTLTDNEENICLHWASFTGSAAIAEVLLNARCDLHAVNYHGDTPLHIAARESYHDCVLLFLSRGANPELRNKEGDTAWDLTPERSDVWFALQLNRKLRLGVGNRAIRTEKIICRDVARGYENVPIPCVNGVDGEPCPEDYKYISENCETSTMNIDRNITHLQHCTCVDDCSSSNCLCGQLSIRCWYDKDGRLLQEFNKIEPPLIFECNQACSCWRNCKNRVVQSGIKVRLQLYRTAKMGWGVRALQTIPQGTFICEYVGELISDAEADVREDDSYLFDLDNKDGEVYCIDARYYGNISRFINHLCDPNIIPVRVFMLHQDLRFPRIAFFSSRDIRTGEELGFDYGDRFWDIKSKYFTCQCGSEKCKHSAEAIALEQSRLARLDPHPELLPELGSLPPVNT

>>> df
                         structure_notation  parameter_measured  recorded_value
0  COc1cc2c(NCCN(C)C)nc(N3CCCC3)nc2cc1C#CCCN1CCCC1                IC50        < 100 nM
1  CCCN1CCC(Nc2nc(N3CC[C@@H](F)C3)nc3cc(C#CCCN4CCCC4)c(OC)cc23)CC1                IC50        < 100 nM
2  CCN1CCC(Nc2nc(N3CCCCC3)nc3cc(C#CCCN4CCCC4)c(OC)cc23)CC1                IC50        < 100 nM
3  COc1cc2c(NC3CCN(C(C)C)CC3)nc(N3CC(F)C3)nc2cc1C#CCCN1CCCC1                IC50        < 100 nM
4  CCN1CCC(Nc2nc(N3CC[C@@H](F)C3)nc3cc(C#CCCN4CCCC4)c(OC)cc23)CC1                IC50        < 100 nM

Challenge: Quickly give me recorded IC50 for COc1cc2c(NCCN(C)C)nc(N3CCCN(C)CC3)nc2cc1C#CCCN1CCCC1
Response given: < 100 nM

Challenge: Quickly give me recorded IC50 for COc1cc2c(NC3CCN(C(C)C)CC3)nc(N3CCCCCC3)nc2cc1C#CCCN1CCCC1
Response given: < 100 nM

Challenge: Quickly give me recorded IC50 for COc1cc2c(NC3CCN(C(C)C)CC3)nc(N3CCCN(C)CC3)nc2cc1C#CCCN1CCCCC1
Response given: < 100 nM

Challenge: Quickly give me recorded IC50 for COc1cc2c(NCCN(C)C)nc(N(C)C)nc2cc1C#CCCN1CCCC1
Response given: < 100 nM

Challenge: Quickly give me recorded IC50 for CCN(CC)CCC#Cc1cc2nc(N3CCCCC3)nc(NC3CCN(C(C)C)CC3)c2cc1OC
Response given: 1000 to 10000 nM

Challenge: Quickly give me recorded IC50 for COc1cc2c(NC3CCN(C(C)C)CC3)nc(N3CC[C@@H](F)C3)nc2cc1C#CCCN1CCCC1
Response given: < 100 nM

Challenge: Quickly give me recorded IC50 for COc1cc2c(NC3CCN(c4ccccc4)CC3)nc(N3CCCCC3)nc2cc1C#CCCN(C)C
Response given: 1000 to 10000 nM

Challenge: Quickly give me recorded IC50 for COc1cc2c(N[C@@H]3CCCN(Cc4ccccc4)C3)nc(N3CCCCC3)nc2cc1C#CCCN(C)C
Response given: 10000 to 100000 nM

Challenge: Quickly give me recorded IC50 for COc1cc2c(NC3CC(C)(C)NC(C)(C)C3)nc(N3CCCC3)nc2cc1C#CCCN1CCCC1
Response given: < 100 nM

Challenge: Quickly give me recorded IC50 for COc1cc2c(NC3CCN(C(C)C)CC3)nc(N3CCCN(C)CC3)nc2cc1C#CCCN1CCCC1
Response given: < 100 nM

Challenge: Quickly give me recorded IC50 for COc1cc2c(NCCN(C)C)nc(N3CC[C@H](F)C3)nc2cc1C#CCCN1CCCC1
Response given: 100 to 1000 nM
